# credit: patent US20240115582A1

Tested on: BRAFMT, MSS CRC cells
Experiment: CellTitre-Glo and Annexin V/PI sensitivity studies
Assay type: cell-based
Conditions: isogenic paired and non-isogenic V600E BRAFMT and BRAFWT panel
Procedure: Materials: A panel of isogenic paired and non-isogenic V600E BRAFMT and BRAFWT cells were used. BOLD-100, a ruthenium-based small molecule inhibitor, was obtained from BOLD Therapeutics. A FDA approved compound library was used. […] As illustrated in FIG. 2. […] Upper: A. BRAFMT V600E HT-29 cells were treated with BOLD-100 for the indicated time and GRP78, CHOP and PARP levels determined by Western blotting (WB). […] IC50 was calculated using Prism software package. […]
pIC50: −log10 of the molar value.
property_measured: pIC50

# value of pIC50, BRAFMT, MSS CRC cells, item [Cl][Ru]([Cl])([Cl])[Cl].[Na+].c1ccc2[nH]ncc2c1.c1ccc2[nH]ncc2c1 [BOLD-100] = 4.51 to 5.03
